Tested on: PCSK9
method: PCSK9 AlphaLisa Huh7 SP and CRC
Assay type: cell-based
experimentalParameters: Huh7, concentration response curve; read-out: Primary CRC PCSK9 AlphaLisa Huh7 CRC Rel IC50
pIC50: −log10 of the molar value.
recordedEndpoint: pIC50

INSERT INTO assay_data (compound, result) VALUES
  ('Cn1c2c(c3ccccc31)C1(CCCCC1)CC2c1ccc2ccccc2c1 (stereo not shown)', '< 4.40');
